# tested.on: PRMT5/MEP50 (Homo sapiens)
# Construct: Flag-PRMT5
# Sequence (O14744 with tags, fused parts or gaps): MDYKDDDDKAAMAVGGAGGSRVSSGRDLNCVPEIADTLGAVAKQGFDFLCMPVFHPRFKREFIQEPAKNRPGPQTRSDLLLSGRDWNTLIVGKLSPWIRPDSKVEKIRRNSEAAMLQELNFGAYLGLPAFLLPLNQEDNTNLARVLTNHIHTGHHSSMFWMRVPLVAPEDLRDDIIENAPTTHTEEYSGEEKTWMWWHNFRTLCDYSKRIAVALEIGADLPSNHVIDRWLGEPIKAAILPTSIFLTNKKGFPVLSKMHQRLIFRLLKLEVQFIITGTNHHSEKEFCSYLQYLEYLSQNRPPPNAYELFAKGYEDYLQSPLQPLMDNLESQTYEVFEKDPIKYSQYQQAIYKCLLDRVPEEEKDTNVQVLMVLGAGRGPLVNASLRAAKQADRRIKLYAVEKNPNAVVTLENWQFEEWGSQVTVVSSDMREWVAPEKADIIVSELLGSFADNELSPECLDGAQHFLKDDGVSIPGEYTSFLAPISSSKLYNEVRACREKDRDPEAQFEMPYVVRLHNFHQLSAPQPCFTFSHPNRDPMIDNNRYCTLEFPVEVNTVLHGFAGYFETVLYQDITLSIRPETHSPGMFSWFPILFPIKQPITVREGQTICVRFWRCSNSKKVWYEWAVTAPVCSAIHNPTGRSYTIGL
# Sequence (Q9BQA1 with tags, fused parts or gaps partner limits assumed): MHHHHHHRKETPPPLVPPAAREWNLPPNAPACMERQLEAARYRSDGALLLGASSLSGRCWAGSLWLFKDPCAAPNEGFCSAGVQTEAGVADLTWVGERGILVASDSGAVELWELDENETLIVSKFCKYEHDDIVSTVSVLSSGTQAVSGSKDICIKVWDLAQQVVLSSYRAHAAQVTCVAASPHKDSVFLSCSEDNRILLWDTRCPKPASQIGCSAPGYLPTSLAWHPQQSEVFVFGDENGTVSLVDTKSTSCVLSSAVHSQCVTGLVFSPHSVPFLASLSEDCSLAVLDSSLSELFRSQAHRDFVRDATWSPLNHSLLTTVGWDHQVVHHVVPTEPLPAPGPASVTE
# test.method.notes: PRMT5 Biochemical Assay (PRMT5/MEP50 enzyme assay on peptide substrate, 3H-SAM Flashplate)
# settings: PRMT5/MEP50 4 nM, 3H-SAM 75 nM, peptide 40 nM, 30 min preincubation at 25 degrees Celsius
pIC50: −log10 of the molar value.
measurement.type: pIC50

{"columns": ["molecule", "tested.on", "result"],
 "data": [
  ["CC(=O)N1CCC(Nc2cc(C(=O)NC[C@H](O)CN3CCc4ncsc4C3)ncn2)CC1", "PRMT5/MEP50 (Homo sapiens)", "5.00 to 6.00"],
  ["Cn1cc2c(n1)CCN(C[C@@H](O)CNC(=O)c1cc(NC3COC3)ncn1)C2", "PRMT5/MEP50 (Homo sapiens)", "< 5.00"],
  ["Cn1cc2c(n1)CCN(C[C@H](O)COc1cccc(-c3ccc4ncn(C)c4c3)c1)C2", "PRMT5/MEP50 (Homo sapiens)", "< 4.30"],
  ["Cn1ncc2c1CN(C[C@@H](O)CNC(=O)c1cc(NC3COC3)ncn1)CC2", "PRMT5/MEP50 (Homo sapiens)", "5.00 to 6.00"],
  ["O=C(NC[C@H](O)CN1CCc2cccnc2C1)c1cc(NC2COC2)ncn1", "PRMT5/MEP50 (Homo sapiens)", "5.00 to 6.00"],
  ["CC(=O)N1CC(Nc2cc(C(=O)NC[C@H](O)CN3CCc4cn[nH]c4C3)ncn2)C1", "PRMT5/MEP50 (Homo sapiens)", "< 5.00"],
  ["CC(=O)N1CCC(Nc2cc(C(=O)NC[C@H](O)CN3CCc4nc(N)sc4C3)ccn2)CC1", "PRMT5/MEP50 (Homo sapiens)", "6.00 to 7.00"],
  ["CC(=O)N1CC(Nc2cc(C(=O)NC[C@H](O)CN3CCc4ncccc4C3)ncn2)C1", "PRMT5/MEP50 (Homo sapiens)", "6.00 to 7.00"]
]}

// query Sample CC(=O)N1CCC(Nc2cc(C(=O)NC[C@H](O)CN3CCc4sc(C)c(C)c4C3)ccn2)CC1 — what was its pIC50?
// result > 7.00

// query So what does the record say about pIC50 for O=C(COc1cccc2cccnc12)NCC(O)CN1CCc2nc[nH]c2C1 (stereo not shown) ?
// result < 5.00

// query Report pIC50 for CC(=O)N1CCC(Nc2cc(C(=O)NC[C@H](O)CN3CCc4scnc4C3)ncn2)CC1 please.
// result 5.00 to 6.00

// query If you can, please state the reported pIC50 value of CC(=O)N1CC(Nc2cc(C(=O)NC[C@H](O)CN3CCc4sc(N)nc4C3)ncn2)C1 .
// result 5.00 to 6.00

// query Entry CC(=O)N1CCC(Nc2cc(C(=O)NC[C@H](O)CN3CCc4sc(C)c(C)c4C3)ncn2)CC1 has what pIC50?
// result > 7.00

// query Suppose we examine the molecule CC(=O)N1CCC(Nc2cc(C(=O)NC[C@H](O)CN3CCc4cnn(C)c4C3)ncn2)CC1 ; what pIC50 value has been reported?
// result 6.00 to 7.00

// query Any idea what its pIC50 is? The molecule is O=C(NC[C@H](O)CN1CCc2ccncc2C1)c1cc(NC2COC2)ncn1
// result 5.00 to 6.00

// query If you can, please state the reported pIC50 value of Cn1cc2c(n1)CN(C[C@@H](O)CNC(=O)c1cc(NC3COC3)ncn1)CC2 .
// result < 5.00

The measurements presented in this section are drawn from patent US20170210751A1.
